System: cell-free MERS-CoV PsV
REPORTED_PROPERTY: EC50

Return EC50 measured with cell-free MERS-CoV PsV given this molecule: O=C(O)c1cc(-c2ccc(C=C3SC(=S)N(CCc4ccccc4)C3=O)o2)ccc1Cl
1.12 µM

----------
Test system: H7N9 PsV
Experiment: microbe, parasite or virus in culture
Assay type: cell-based, influenza virus
Settings: read-out: IC50 H7N9
REPORTED_PROPERTY: IC50 (nM)
Numeric answer only, unit nM assumed.

Which measured IC50 belongs to O=C(O)c1cc(-c2ccc(C=C3SC(=S)N(CCc4ccccc4)C3=O)o2)ccc1Cl , tested on H7N9 PsV?
850
